Tested on: writhing behavior
Test: Analgesic action by a writhing method using acetic acid
Assay type: in vivo, Male mice of a ddY strain
Conditions: sc; statistically minimum effective dose; 0.6% acetic acid ip 15 minutes after the drug, writhing counted for ten minutes; mice
Attribute: Analgesic Action (minimum effective dose)
Note: unit mg/kg is implicit; provide only the numeric part.

[[record]]
molecule = "CNC(=O)Cc1ccc2ccn(C3CCN(CCc4ccccc4F)CC3)c2c1"
target_system = "writhing behavior"
result_number = 3

[[record]]
molecule = "CCCS(=O)(=O)NCc1ccc(-c2cc3ccccc3c(N3CCN(CC)CC3)n2)cc1Cl.Cl"
target_system = "writhing behavior"
result_number = 3


Tell me the measured Analgesic Action (minimum effective dose) of CCN1CCN(c2nc(-c3ccc(OCCO)c(C#N)c3)cc3ccccc23)CC1.Cl , please.
1

Next molecule: CC(=O)NCc1ccc2ccn(C3CCN(CCc4ccccc4F)CC3)c2c1
3

# repeat for O=C(Cc1ccc2ccn(C3CCN(CCc4ccccc4F)CC3)c2c1)NCCO
10

Item: CCN1CCN(c2nc(-c3ccc(OCC(C)O)cc3)cc3sccc23)CC1.Cl (stereo not shown)
1

Follow-up entry: CNC(=O)Cc1ccc2ccn(C3CCN(CCc4ccc(F)cc4)CC3)c2c1
1

---

Molecular target: 5HT1A (Homo sapiens, UniProt P08908)
Sequence (P08908 whole entry, species assumed): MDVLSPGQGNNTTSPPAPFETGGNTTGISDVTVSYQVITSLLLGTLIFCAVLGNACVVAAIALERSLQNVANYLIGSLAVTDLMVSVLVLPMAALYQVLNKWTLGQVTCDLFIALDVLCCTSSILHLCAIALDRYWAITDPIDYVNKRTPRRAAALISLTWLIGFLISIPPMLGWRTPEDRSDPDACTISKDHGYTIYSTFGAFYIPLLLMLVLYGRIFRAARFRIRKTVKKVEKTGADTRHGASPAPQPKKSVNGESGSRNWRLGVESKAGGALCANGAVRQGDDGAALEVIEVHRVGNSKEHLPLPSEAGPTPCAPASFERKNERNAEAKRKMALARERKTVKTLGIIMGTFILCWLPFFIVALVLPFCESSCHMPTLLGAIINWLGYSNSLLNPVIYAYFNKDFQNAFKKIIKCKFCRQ
Assay: Serotonin (5HT) receptor binding action (RBA; in vitro), 5HT1A
Settings: method of JP98/01481 or JP-A 10-281752
Counter-ions that a name gives are not always drawn.
readout-label: Ki (nM)
Please give a number only; it is taken to be in nM.

[[record]]
molecule = "CCN1CCN(c2nc(-c3ccc(C(C)O)cc3)cc3sccc23)CC1.O=C(O)C(=O)O (stereo not shown) [(26), oxalate]"
readout_label = "Ki"
units_of_measure = "nM"
result_number = 15

[[record]]
molecule = "CCN1CCN(c2nc(-c3ccc(OCCO)c(C#N)c3)cc3ccccc23)CC1.Cl [(21), hydrochloride]"
readout_label = "Ki"
units_of_measure = "nM"
result_number = 13.4

[[record]]
molecule = "CC(=O)NCc1ccc2ccn(C3CCN(CCc4ccc(F)cc4)CC3)c2c1 [(1)]"
readout_label = "Ki"
units_of_measure = "nM"
result_number = 0.51

[[record]]
molecule = "CCN1CCN(c2nc(-c3ccc(OC)cc3)cc3ccccc23)CC1 [(15)]"
readout_label = "Ki"
units_of_measure = "nM"
result_number = 59.9


I would be grateful if you could share the reported Ki for CNC(=O)Cc1ccc2ccn(C3CCN(CCc4ccccc4F)CC3)c2c1 [(10)] .
4.02

Moving on to the next molecule: CCN1CCN(c2nc(-c3cccc(CCCO)c3)cc3ccccc23)CC1 [(22), hydrochloride]
54.5

---

Catalogue of log10 of Ki readings, one per entry.
Biological target: 5HT1A (Homo sapiens)
Assay: Serotonin (5HT) receptor binding action (RBA; in vitro), 5HT1A
Conditions: method of JP98/01481 or JP-A 10-281752
The common logarithm of Ki in nM is what is listed.

Please review the following examples before continuing.
[[record]]
compound = "CCC(=O)NCc1ccc2ccn(C3CCN(CCc4ccc(F)cc4)CC3)c2c1"
result_number = 0.00

[[record]]
compound = "CCN1CCN(c2nc(-c3ccc(CCC(C)(C)O)c(F)c3)cc3ccccc23)CC1.Cl [(19), hydrochloride]"
result_number = 1.49

[[record]]
compound = "COc1ccc(CCN2CCC(n3ccc4ccc(CNC(C)=O)cc43)CC2)cc1"
result_number = -0.57

[[record]]
compound = "CCN1CCN(c2nc(-c3ccc(OCC(C)(C)O)cc3)cc3sccc23)CC1.Cl [(25), hydrochloride]"
result_number = 1.74

[[record]]
compound = "CCN1CCN(c2nc(-c3ccc(OCCO)cc3)cc3ccccc23)CC1"
result_number = 1.50

[[record]]
compound = "NC(=O)Cc1ccc2ccn(C3CCN(CCc4ccccc4F)CC3)c2c1"
result_number = -0.23


Proceeding to the next compound to report its log10 of Ki.
Can you look up the measured log10 of Ki of CCN1CCN(c2nc(-c3ccc(CCCO)c(OC)c3)cc3ccccc23)CC1.Cl [(20), hydrochloride] for me?
0.90
